system: BT-549 breast; test: NCI-60 one-dose screen, 48 h; details: 10 µM unless noted
About 83,000 compounds went through this panel and 20% of them were active in at least one assay; those are over-represented in the sample as a whole. Activity calls are given as the source filed them. How the source made its calls: active means growth percent below 10; inactive means the rest.
Classes to choose from: active, inactive

Hello, I am checking results. What call was entered for O=C1/C(=C2/C=Nc3ccccc32)N(O)c2ccccc21 ? inactive

Hello, I am checking results. What call was entered for C[n+]1cc2cc(C(N)=O)[nH]c3c(=N)c(Cl)c(N)c1c23 ? inactive

Hello, I am checking results. What call was entered for CN(C)c1ccc(-c2cc(-c3ccc(Nc4nc(Nc5ccc(Cl)cc5)nc(Nc5ccc(Cl)cc5)n4)cc3)no2)cc1 ? inactive

Hello, I am checking results. What call was entered for OC(c1cccc(-n2ccc(C(F)(F)F)n2)c1)c1cnccc1NC1CCCCCC1 (centres undefined) ? inactive

Hello, I am checking results. What call was entered for Clc1ccc(-c2c3ccc(=[N+]4CCCCC4)cc-3oc3cc(N4CCCCC4)ccc23)cc1 ? active

Hello, I am checking results. What call was entered for Cc1ccc(Cc2cnc(NC(=O)c3ccc4noc(-c5ccccc5)c4c3)s2)cc1 ? inactive

Hello, I am checking results. What call was entered for O=C1/C(=C/c2ccccc2)CCc2nc3ccccc3c(/C=C/c3ccc(Cl)cc3)c21 ? inactive

Hello, I am checking results. What call was entered for COc1cc(/C=N/Nc2ncc(-c3cc4cc5c(cc4o3)OCO5)s2)cc(OC)c1OC ? inactive

Hello, I am checking results. What call was entered for C[C@H]1[C@H]2[C@H]3CC[C@@H]4[C@@]5(C)C/C(=C/c6ccco6)C(=O)C(C)(C)[C@@H]5CC[C@@]4(C)[C@]3(C)CC[C@]23CO[C@]1(C)[C@@H](C(=O)/C=C\c1ccco1)C3 ? inactive

Hello, I am checking results. What call was entered for C[n+]1cccc(CC(=O)NO)c1 ? inactive

Hello, I am checking results. What call was entered for COc1cccc(-c2nn(-c3ccccc3)cc2-c2ccnc(NCCNC(=O)Nc3ccccc3)c2)c1 ? inactive

Hello, I am checking results. What call was entered for COc1ccc(-c2cc(-c3ccc(Nc4nc(Nc5ccc(Cl)cc5)nc(Nc5ccc(Cl)cc5)n4)cc3)nc(N)c2C#N)cc1 ? active

Hello, I am checking results. What call was entered for O=C(NC(CSSCC(NC(=O)c1ccccc1)C(=O)O)C(=O)O)c1ccccc1 (centres undefined) ? inactive

Hello, I am checking results. What call was entered for COc1ccc2[nH]c(O)c(/C=c3/cc4c(c(-c5ccc(F)c(OC)c5)n3)=Nc3ccccc3-4)c2c1 ? inactive
